# Method notes: NCI Yeast Anticancer Drug Screen. Data for the wt1 strain (AID 149);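 also: 0% = growth of vehicle-treated wt1 cultures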
# Cond: S. cerevisiae wt1 strain (SPY 50644) growth inhibition; at 1.2 µM
This is part of a sample that, as a whole, favours compounds with a hit. Of some 79,000 tested, about 15% had one in any assay. The source made the active and inactive calls. Rule as the data show it: active = growth inhibition above about 70%; inactive = the rest.
Allowed answers: 1 = active, 0 = inactive

Test call for this compound, please: CCCCCCCCCCCCCC(=O)OC(C)CCC1CCCO1 (centres undefined)
0

Test call for this compound, please: CN=C(N)N/N=C(\C)c1ccc2oc3ccc(/C(C)=N/NC(N)=NC)cc3c2c1
0

Test call for this compound, please: O=C(N/N=C\c1c(Cl)cccc1Cl)N/N=C/c1c(Cl)cccc1Cl
0

Test call for this compound, please: CN(CC(=O)O)c1ccc(/C=C/c2ccnc3ccccc23)cc1
0

Test call for this compound, please: CCCCC(=O)c1c(O)nc2sccn2c1=O
0

Test call for this compound, please: CC1=CC2C(C(C)C)CC1C1C(=O)OC(=O)C21 (centres undefined)
0

Test call for this compound, please: CC(=O)N1C(=O)/C(=C\C(=O)c2ccc(Cl)cc2)c2ccccc21
0

Test call for this compound, please: O=C(Nc1ccc2c(c1)Cc1c-2ccc([N+](=O)[O-])c1F)C(F)(F)F
0

Test call for this compound, please: CC[C@@]1(OC(=O)CCC(=O)O)C(=O)OCc2c1cc1n(c2=O)Cc2cc3ccccc3nc2-1
0

Test call for this compound, please: O=Cc1coc2ccccc2c1=O
0

Test call for this compound, please: CC(=O)C1=C(C)O/C(=C/c2cccc(Cl)c2)C1=O
0

Test call for this compound, please: CN(C)CCNc1cccc2sc3ccc(O)cc3c(=O)c12
0

Test call for this compound, please: O=C(O)c1ccccc1.[Ag]
1

Test call for this compound, please: O=C1c2ccccc2C(=O)c2cc(S(=O)(=O)Nc3ccccc3)ccc21
0

Test call for this compound, please: O=[N+]([O-])c1c(/C=N/Nc2ccccc2)oc(-c2ccc3c(c2)OCO3)c1-c1ccc2c(c1)OCO2
0

Test call for this compound, please: CC(=O)OCC1OC(O[C@H]2C=C[C@@H](C(=O)OCc3ccccc3)n3c(=O)n(-c4ccccc4)c(=O)n32)C(OC(C)=O)C(OC(C)=O)C1OC(C)=O (some centres undefined)
0

Test call for this compound, please: N#CC(=S)Nc1cccc(Cl)c1
0

Test call for this compound, please: NCc1c(O)ccc2ccccc12
0

Test call for this compound, please: C=C(CCCO)[C@@H]1CC[C@@](C)(O)[C@H]1C
0

Test call for this compound, please: O=C(/C=C/c1cccc(Br)c1)c1ccc(Cl)cc1
0

Test call for this compound, please: COC(=O)c1cccc(C)c1C(=O)c1c(C)cc(C)cc1C
0

Test call for this compound, please: C=C1N(C)c2ccc(Cl)cc2C1(C)C
0

Test call for this compound, please: O=S1(=O)c2ccccc2N=C(c2ccccc2Cl)CC1c1ccc(F)cc1 (centres undefined)
0

Test call for this compound, please: O=NN(CCCl)C(=O)NCCCl
0
